Assignment: determine reported IC50 for the given compounds.
experimentalTarget: Human Calpain 2/NS1 (Homo sapiens, UniProt P17655)
methodDescription: Biochemical inhibition of calpain 2, continuous fluorescence (FRET substrate) assay
studyConditions: mean; read-out: Human Calpain 2/NS1 1C50 [sic] (nM)_MEAN

Quick request: IC50 for each listed item, please.
1. Cn1c2ccccc2c2c(C(=O)NC(Cc3ccccc3)C(=O)C(N)=O)cccc21 (stereo not drawn)
2. NC(=O)C(=O)[C@H](Cc1ccccc1)NC(=O)c1c(Cl)cccc1-c1ccccc1
3. Cn1c2ccccc2c2c(C(=O)NC(C=O)Cc3ccccc3)cccc21 (stereo not drawn)
4. NC(=O)C(=O)C(Cc1ccccc1)NC(=O)c1c(Cl)ccc2ccccc12 (stereo not drawn)

1. < 3000 nM
2. < 3000 nM
3. < 3000 nM
4. < 3000 nM

* * *

Assignment: determine reported IC50 for the given compounds.
experimentalTarget: Human Calpain 1/NS1 (Homo sapiens, UniProt P07384)
Sequence (P07384 whole entry, one chain of several): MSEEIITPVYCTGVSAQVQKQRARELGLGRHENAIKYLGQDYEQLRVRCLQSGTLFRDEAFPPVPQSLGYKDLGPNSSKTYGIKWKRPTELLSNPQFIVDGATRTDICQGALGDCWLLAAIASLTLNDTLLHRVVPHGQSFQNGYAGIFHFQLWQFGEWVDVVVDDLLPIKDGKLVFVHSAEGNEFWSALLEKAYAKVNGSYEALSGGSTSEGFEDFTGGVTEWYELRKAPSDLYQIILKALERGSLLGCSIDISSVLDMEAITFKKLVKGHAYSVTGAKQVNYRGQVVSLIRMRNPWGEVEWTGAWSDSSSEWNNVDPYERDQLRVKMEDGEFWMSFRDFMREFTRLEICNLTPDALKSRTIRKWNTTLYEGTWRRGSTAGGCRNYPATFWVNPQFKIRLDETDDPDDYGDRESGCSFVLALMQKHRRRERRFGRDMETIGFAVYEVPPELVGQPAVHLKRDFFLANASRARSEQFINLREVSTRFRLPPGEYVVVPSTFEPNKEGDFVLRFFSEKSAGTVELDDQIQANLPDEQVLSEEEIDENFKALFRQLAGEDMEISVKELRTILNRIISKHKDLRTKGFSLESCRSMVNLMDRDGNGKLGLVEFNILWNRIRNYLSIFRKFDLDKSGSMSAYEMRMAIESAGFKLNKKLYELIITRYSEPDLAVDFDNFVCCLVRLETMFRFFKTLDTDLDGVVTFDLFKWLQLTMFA
methodDescription: Biochemical inhibition of calpain 1, continuous fluorescence (FRET substrate) assay
studyConditions: mean; read-out: Human Calpain 1/NS1 IC50 (nM)_MEAN

Quick request: IC50 for each listed item, please.
1. O=CC(Cc1ccccc1)NC(=O)c1cccc2c1Oc1ccccc1O2 (stereo not drawn) [Compound 48]
2. Cc1cccc(C(=O)NC(Cc2ccccc2)C(=O)C(N)=O)c1C (stereo not drawn) [Compound 26]
3. NC(=O)C(=O)[C@H](Cc1ccccc1)NC(=O)c1c(C(F)(F)F)ccc(Cl)c1F [Compound 32]

["< 3000 nM", "< 3000 nM", "< 3000 nM"]

* * *

experimentalTarget: Human Calpain 2/NS1 (Homo sapiens, UniProt P17655)
Sequence (P17655 1-700): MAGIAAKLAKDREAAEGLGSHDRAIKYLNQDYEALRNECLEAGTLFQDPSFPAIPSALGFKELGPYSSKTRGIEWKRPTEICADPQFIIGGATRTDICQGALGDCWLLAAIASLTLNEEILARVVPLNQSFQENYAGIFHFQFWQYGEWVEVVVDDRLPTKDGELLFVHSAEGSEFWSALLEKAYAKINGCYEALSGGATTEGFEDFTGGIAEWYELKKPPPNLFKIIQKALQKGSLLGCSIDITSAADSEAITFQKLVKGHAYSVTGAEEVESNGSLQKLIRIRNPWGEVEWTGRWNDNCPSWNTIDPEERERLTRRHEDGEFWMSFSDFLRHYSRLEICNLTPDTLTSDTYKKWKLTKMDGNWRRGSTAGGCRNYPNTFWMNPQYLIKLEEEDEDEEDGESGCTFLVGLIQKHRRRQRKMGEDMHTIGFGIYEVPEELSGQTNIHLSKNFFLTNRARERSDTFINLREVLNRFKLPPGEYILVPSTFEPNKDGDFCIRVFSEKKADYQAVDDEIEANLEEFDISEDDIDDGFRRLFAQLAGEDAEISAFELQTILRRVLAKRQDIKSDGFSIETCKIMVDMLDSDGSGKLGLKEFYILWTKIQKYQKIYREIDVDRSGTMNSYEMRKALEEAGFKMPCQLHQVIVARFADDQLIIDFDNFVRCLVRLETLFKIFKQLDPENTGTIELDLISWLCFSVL
Sequence (P04632 1-268 partner): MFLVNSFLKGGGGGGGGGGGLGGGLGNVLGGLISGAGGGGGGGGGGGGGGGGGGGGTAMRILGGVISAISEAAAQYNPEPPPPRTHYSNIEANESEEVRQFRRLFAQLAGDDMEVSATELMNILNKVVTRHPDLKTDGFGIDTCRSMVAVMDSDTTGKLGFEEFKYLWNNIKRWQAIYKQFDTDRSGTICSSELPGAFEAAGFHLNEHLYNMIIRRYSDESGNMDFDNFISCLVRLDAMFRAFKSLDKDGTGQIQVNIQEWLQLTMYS
methodDescription: Biochemical inhibition of calpain 2, continuous fluorescence (FRET substrate) assay
studyConditions: mean; read-out: Human Calpain 2/NS1 1C50 [sic] (nM)_MEAN
measurementType: IC50

NC(=O)C(=O)C(Cc1ccccc1)NC(=O)N1c2ccccc2Oc2ccccc21 (stereo not drawn) [Compound 6] :: < 3000 nM
NC(=O)C(=O)C(Cc1ccccc1)NC(=O)c1ccc2c(c1)OCO2 (stereo not drawn) [Compound 24] :: < 3000 nM
NC(=O)C(=O)[C@H](Cc1ccccc1)NC(=O)c1cc(Br)ccc1Cl [Compound 34] :: < 3000 nM
Cc1ccc(F)c(C(=O)NC(C=O)Cc2ccccc2)c1Cl (stereo not drawn) [Compound 42] :: < 3000 nM
NC(=O)C(=O)C(Cc1ccccc1)NC(=O)c1cccc2c1oc1ccccc12 (stereo not drawn) [Compound 9] :: < 3000 nM

Quick request: IC50 for each listed item, please.
1. NC(=O)C(=O)[C@H](Cc1ccccc1)NC(=O)c1c(F)cccc1C(F)(F)F [Compound 16]
2. NC(=O)C(=O)[C@H](Cc1ccccc1)NC(=O)c1c(C(F)(F)F)ccc(Cl)c1F [Compound 32]
3. NC(=O)C(=O)[C@H](Cc1ccccc1)NC(=O)c1ccc(-c2ccccc2)cc1 [Compound 23]
4. O=CC(Cc1ccccc1)NC(=O)c1c(Cl)cccc1Br (stereo not drawn) [Compound 41]
5. Cc1cccc(C(=O)NC(Cc2ccccc2)C(=O)C(N)=O)c1C (stereo not drawn) [Compound 26]
6. NC(=O)C(=O)C(Cc1ccccc1)NC(=O)n1c2ccccc2c2ccccc21 (stereo not drawn) [Compound 8]

1. < 3000 nM
2. < 3000 nM
3. > 10000 nM
4. < 3000 nM
5. < 3000 nM
6. > 10000 nM

Quick request: IC50 for each listed item, please.
1. NC(=O)C(=O)[C@H](Cc1ccccc1)NC(=O)c1ccccc1Br [Compound 36]
2. COc1ccc(F)c(C(=O)NC(C=O)Cc2ccccc2)c1Cl (stereo not drawn) [Compound 43]
3. COc1cccc(OC)c1C(=O)N[C@@H](Cc1ccccc1)C(=O)C(N)=O [Compound 18]

1: < 3000 nM; 2: < 3000 nM; 3: > 10000 nM

Quick request: IC50 for each listed item, please.
1. Cc1ccc(Cl)c(C(=O)N[C@@H](Cc2ccccc2)C(=O)C(N)=O)c1F [Compound 31]
2. NC(=O)C(=O)C(Cc1ccccc1)NC(=O)c1cccc2c1Oc1ccccc1O2 (stereo not drawn) [Compound 7]
3. O=CC(Cc1ccccc1)NC(=O)c1c(Cl)ccc2ccccc12 (stereo not drawn) [Compound 44]

1: < 3000 nM; 2: < 3000 nM; 3: < 3000 nM

For reference, reported IC50 for NC(=O)C(=O)[C@H](Cc1ccccc1)NC(=O)c1c(Cl)cccc1C(F)(F)F [Compound 19] stands at < 3000 nM

* * *

Assignment: determine reported IC50 for the given compounds.
Tested on: calpain activity in SH-SY5Y cells (Spectrin)
methodDescription: SH-SY5Y Spectrin cellular calpain inhibition
Type: cell-based

Answered examples (3):
NC(=O)C(=O)[C@H](Cc1ccccc1)NC(=O)c1c(Cl)cccc1Cl :: 10 to 25 µM
COc1ccc(F)c(C(=O)N[C@@H](Cc2ccccc2)C(=O)C(N)=O)c1Cl :: 10 to 25 µM
NC(=O)C(=O)[C@H](Cc1ccccc1)NC(=O)c1cc(Br)ccc1Cl :: < 10 µM

Quick request: IC50 for each listed item, please.
1. O=CC(Cc1ccccc1)NC(=O)c1c(C(F)(F)F)ccc(Cl)c1F (stereo not shown)
2. Cc1ccc(F)c(C(=O)NC(C=O)Cc2ccccc2)c1Cl (stereo not shown)
3. Cn1c2ccccc2c2cccc(C(=O)NC(Cc3ccccc3)C(=O)C(N)=O)c21 (stereo not shown)

["< 10 µM", "10 to 25 µM", "> 25 µM"]

For reference, reported IC50 for NC(=O)C(=O)[C@H](Cc1ccccc1)NC(=O)c1c(C(F)(F)F)ccc(Cl)c1F stands at < 10 µM

* * *

experimentalTarget: Human Calpain 2/NS1 (Homo sapiens, UniProt P17655)
methodDescription: Biochemical inhibition of calpain 2, continuous fluorescence (FRET substrate) assay
studyConditions: mean; read-out: Human Calpain 2/NS1 1C50 [sic] (nM)_MEAN
Assignment: determine reported IC50 for the given compounds.

Answered examples (6):
NC(=O)C(=O)C(Cc1ccccc1)NC(=O)C1c2ccccc2-c2ccccc21 (stereo not drawn) :: 3000 to 10000 nM
NC(=O)C(=O)[C@H](Cc1ccccc1)NC(=O)c1c(F)cccc1I :: < 3000 nM
NC(=O)C(=O)[C@H](Cc1ccccc1)NC(=O)c1cc(F)c(Cl)cc1Cl :: < 3000 nM
O=CC(Cc1ccccc1)NC(=O)c1cccc2c1Oc1ccccc1O2 (stereo not drawn) :: < 3000 nM
NC(=O)C(=O)[C@H](Cc1ccccc1)NC(=O)c1c(C(F)(F)F)cccc1C(F)(F)F :: 3000 to 10000 nM
NC(=O)C(=O)C(Cc1ccccc1)NC(=O)c1cccc(F)c1 (stereo not drawn) :: < 3000 nM

Quick request: IC50 for each listed item, please.
1. O=CC(Cc1ccccc1)NC(=O)c1c(F)cccc1F (stereo not drawn)
2. O=CC(Cc1ccccc1)NC(=O)c1c(F)cccc1C(F)(F)F (stereo not drawn)
3. NC(=O)C(=O)C(Cc1ccccc1)NC(=O)C1c2ccccc2Oc2ccccc21 (stereo not drawn)

1. < 3000 nM
2. < 3000 nM
3. < 3000 nM

Source listed as patent US20210347727A1.
